Target under test: T1, HLA-A2/E7(11-19) tetramer (human; HPV 16)
T1 construct: also called E7(11-19) peptide-MHC tetramer; E7 tet
Method description: flow cytometry, tetramer + anti-CD8; transfected mix of CD8- and CD8+ Jurkat-derived cells;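 note: cells transiently transfected with TCR-encoding plasmids, analysed 48 h afterwards by co-staining with HLA-A*02:01 peptide tetramer and anti-CD8 antibody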

Binder	% cells E7 tet+/CD8+ quadrant / %
TCR 44 (codon-optimized, cysteine-modified) (TCR, V domains shown) V domain 1: GQNIDQPTEMTATEGAIVQINCTYQTSGFNGLFWYQQHAGEAPTFLSYNVLDGLEEKGRFSSFLSRSKGYSYLLLKELQMKDSASYLCAQYSGGYQKVTFGTGTKLQVIP V domain 2: DSGVTQTPKHLITATGQRVTLRCSPRSGDLSVYWYQQSLDQGLQFLIQYYNGEERAKGNILERFSAQQFPDLHSELNLSSLELGDSALYFCASSGTPDTQYFGPGTRLTVLE	2.96
TCR 34 (codon-optimized, cysteine-modified) (TCR, V domains shown) V domain 1: ELKVEQNPLFLSMQEGKNYTIYCNYSTTSDRLYWYRQDPGKSLESLFVLLSNGAVKQEGRLMASLDTKARLSTLHITAAVHDLSATYFCAVSGTYKYIFGTGTRLKVLA V domain 2: ETGVTQSPTHLIKTRGQQVTLRCSSQSGHNTVSWYQQALGQGPQFIFQYYREEENGRGNFPPRFSGLQFPNYSSELNVNALELDDSALYLCASSSYAGSYEQYFGPGTRLTVTE	26.3
TCR 45 (codon-optimized, cysteine-modified) (TCR, V domains shown) V domain 1: GQQVMQIPQYQHVQEGEDFTTYCNSSTTLSNIQWYKQRPGGHPVFLIQLVKSGEVKKQKRLTFQFGEAKKNSSLHITATQTTDVGTYFCAGSSGAGSYQLTFGKGTKLSVIP V domain 2: GAGVSQSPSNKVTEKGKDVELRCDPISGHTALYWYRQRLGQGLEFLIYFQGNSAPDKSGLPSDRFSAERTGESVSTLTIQRTQQEDSAVYLCASSLYLGTTGELFFGEGSRLTVLE	22.4
TCR 53 (codon-optimized, cysteine-modified) (TCR, V domains shown) V domain 1: AQSVAQPEDQVNVAEGNPLTVKCTYSVSGNPYLFWYVQYPNRGLQFLLKYITGDNLVKGSYGFEAEFNKSQTSFHLKKPSALVSDSALYFCAVRDFGSGTYKYIFG V domain 2: GAGVSQSPRYKVTKRGQDVALRCDPISGHVSLYWYRQALGQGPEFLTYFNYEAQQDKSGLPNDRFSAERPEGSISTLTIQRTEQRDSAMYRCASSGSGTSGYNEQFFGPGTRLTVLE	3.35
TCR 36 (codon-optimized, cysteine-modified) (TCR, V domains shown) V domain 1: RKEVEQDPGPFNVPEGATVAFNCTYSNSASQSFFWYRQDCRKEPKLLMSVYSSGNEDGRFTAQLNRASQYISLLIRDSKLSDSATYLCVVNRDNYGQNFVFGPGTRLSVLP V domain 2: EPEVTQTPSHQVTQMGQEVILRCVPISNHLYFYWYRQILGQKVEFLVSFYNNEISEKSEIFDDQFSVERPDGSNFTLKIRSTKLEDSAMYFCAMTGRSNYEQYFGPGTRLTVTE	23.4
